Biological target: T1, human c-Met (HGFR), full length, on the cell surface (human, UniProt P08581 25-1390)
T1 construct: Endogenous c-Met on human tumor cell lines MKN45, NCI-H596, PC-3 and HepG2; also called hepatocyte growth factor receptor; mesenchymal-epithelial transition factor
T1 sequence (P08581 25-1390 limits assumed): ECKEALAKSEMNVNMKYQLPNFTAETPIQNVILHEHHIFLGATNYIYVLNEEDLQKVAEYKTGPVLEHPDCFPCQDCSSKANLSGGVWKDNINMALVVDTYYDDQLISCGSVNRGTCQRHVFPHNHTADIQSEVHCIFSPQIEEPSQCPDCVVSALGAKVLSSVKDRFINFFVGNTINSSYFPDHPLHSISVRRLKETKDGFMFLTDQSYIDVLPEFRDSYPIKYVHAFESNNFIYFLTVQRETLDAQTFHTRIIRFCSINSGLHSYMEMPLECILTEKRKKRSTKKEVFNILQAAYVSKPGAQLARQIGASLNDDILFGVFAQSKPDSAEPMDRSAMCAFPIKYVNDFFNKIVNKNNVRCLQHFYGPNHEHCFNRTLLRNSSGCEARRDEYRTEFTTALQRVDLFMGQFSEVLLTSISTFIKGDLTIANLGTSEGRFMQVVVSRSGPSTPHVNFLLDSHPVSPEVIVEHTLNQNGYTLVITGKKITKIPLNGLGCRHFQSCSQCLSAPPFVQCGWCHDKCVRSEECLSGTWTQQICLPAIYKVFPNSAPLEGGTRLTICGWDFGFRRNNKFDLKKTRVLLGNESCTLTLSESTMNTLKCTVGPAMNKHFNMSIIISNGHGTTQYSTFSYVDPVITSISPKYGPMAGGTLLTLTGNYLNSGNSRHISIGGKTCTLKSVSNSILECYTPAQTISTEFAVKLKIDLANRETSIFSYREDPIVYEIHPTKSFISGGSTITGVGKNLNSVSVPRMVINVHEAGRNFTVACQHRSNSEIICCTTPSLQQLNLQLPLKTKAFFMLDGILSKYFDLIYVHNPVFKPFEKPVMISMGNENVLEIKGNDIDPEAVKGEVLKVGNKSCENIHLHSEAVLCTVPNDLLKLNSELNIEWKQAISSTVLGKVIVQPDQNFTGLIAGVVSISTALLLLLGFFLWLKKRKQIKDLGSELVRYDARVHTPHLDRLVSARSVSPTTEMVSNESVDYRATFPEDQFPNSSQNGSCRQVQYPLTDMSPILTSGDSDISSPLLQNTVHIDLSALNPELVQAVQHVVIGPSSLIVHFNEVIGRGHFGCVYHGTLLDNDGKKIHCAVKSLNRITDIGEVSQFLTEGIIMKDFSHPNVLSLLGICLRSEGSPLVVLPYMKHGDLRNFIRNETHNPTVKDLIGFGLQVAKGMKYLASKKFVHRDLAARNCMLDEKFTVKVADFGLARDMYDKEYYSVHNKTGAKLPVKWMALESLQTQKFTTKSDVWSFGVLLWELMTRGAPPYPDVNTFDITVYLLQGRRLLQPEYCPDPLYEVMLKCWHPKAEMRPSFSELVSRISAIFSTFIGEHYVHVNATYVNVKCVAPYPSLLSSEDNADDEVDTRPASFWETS
Assay: flow cytometry, NCI-H596 cells; EC50 with 50 ng/mL HGF against EC50 without HGF
Recorded Fold shift (HGF), one value per entry.

[[record]]
binder = "mAb2c (antibody, human IgG1, kappa, V domains shown, Humanized IgG1 kappa, HC-41C, from wt/41C-chi-mAb2; also called humanized HC-41C antibody mAb2c) VH: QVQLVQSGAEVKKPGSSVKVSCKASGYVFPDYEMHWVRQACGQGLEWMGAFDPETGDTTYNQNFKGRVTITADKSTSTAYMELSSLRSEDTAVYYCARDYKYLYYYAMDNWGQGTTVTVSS VL: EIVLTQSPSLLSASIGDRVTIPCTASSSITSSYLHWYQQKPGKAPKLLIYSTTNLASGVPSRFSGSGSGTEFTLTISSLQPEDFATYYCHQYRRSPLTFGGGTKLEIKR"
readout_type = "Fold shift (HGF)"
assay_result = "3.3 fold"

[[record]]
binder = "mAb3d (antibody, human IgG1, kappa, V domains shown, Humanized IgG1 kappa, HC-41C, from wt/41C-chi-mAb3; also called humanized HC-41C antibody mAb3d) VH: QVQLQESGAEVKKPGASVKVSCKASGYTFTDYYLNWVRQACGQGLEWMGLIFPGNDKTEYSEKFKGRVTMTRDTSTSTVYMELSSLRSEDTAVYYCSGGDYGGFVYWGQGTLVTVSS VL: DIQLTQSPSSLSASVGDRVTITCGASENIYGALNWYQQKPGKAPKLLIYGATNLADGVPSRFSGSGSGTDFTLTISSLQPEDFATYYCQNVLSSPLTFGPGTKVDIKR"
readout_type = "Fold shift (HGF)"
assay_result = "7.5 fold"

[[record]]
binder = "mAb3a (antibody, human IgG1, kappa, V domains shown, Humanized IgG1 kappa, HC-41C, from wt/41C-chi-mAb3; also called humanized HC-41C antibody mAb3a) VH: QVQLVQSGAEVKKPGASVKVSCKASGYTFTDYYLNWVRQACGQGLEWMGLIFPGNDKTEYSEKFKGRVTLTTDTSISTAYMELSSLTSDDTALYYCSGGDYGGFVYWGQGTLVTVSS VL: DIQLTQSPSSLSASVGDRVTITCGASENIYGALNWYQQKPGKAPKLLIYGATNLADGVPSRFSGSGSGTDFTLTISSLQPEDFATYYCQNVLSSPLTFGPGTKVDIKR"
readout_type = "Fold shift (HGF)"
assay_result = "4 fold"

[[record]]
binder = "mAb3e (antibody, human IgG1, kappa, V domains shown, Humanized IgG1 kappa, HC-41C, from wt/41C-chi-mAb3; also called humanized HC-41C antibody mAb3e) VH: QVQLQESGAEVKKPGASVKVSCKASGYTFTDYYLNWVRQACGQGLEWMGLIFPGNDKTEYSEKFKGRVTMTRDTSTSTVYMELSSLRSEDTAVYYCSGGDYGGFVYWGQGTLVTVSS VL: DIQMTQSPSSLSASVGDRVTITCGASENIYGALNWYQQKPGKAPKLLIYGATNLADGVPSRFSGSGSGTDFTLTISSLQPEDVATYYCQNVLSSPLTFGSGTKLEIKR"
readout_type = "Fold shift (HGF)"
assay_result = "7 fold"

[[record]]
binder = "mAb2a (antibody, human IgG1, kappa, V domains shown, Humanized IgG1 kappa, HC-41C, from wt/41C-chi-mAb2; also called humanized HC-41C antibody mAb2a) VH: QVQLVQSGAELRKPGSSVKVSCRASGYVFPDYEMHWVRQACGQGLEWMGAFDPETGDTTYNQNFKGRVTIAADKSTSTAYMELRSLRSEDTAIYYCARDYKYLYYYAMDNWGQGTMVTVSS VL: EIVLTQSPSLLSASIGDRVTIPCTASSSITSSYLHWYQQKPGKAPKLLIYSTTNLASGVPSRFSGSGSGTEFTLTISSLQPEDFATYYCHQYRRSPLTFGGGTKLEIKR"
readout_type = "Fold shift (HGF)"
assay_result = "4 fold"


Turning now to a further binder:
Let me know recorded Fold shift (HGF) for mAb3b (antibody, human IgG1, kappa, V domains shown, Humanized IgG1 kappa, HC-41C, from wt/41C-chi-mAb3; also called humanized HC-41C antibody mAb3b) VH: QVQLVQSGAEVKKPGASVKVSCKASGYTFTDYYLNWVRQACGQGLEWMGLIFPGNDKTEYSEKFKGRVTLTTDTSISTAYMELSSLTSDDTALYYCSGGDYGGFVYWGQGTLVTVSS VL: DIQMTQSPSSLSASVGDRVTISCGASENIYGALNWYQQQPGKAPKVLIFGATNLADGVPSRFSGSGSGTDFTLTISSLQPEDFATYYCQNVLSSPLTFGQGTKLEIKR , thanks.
3.5 fold
